target: Cyclin E1 (Homo sapiens, UniProt P24864+Q96SW2); test: Cyclin E1 Cellular Degradation Assay (MSD); format: cell-based; parameters: endogenous in cells; host or cells: OVCAR3; conditions: Cyclin E1 cellular degradation
Sequence (P24864 whole entry): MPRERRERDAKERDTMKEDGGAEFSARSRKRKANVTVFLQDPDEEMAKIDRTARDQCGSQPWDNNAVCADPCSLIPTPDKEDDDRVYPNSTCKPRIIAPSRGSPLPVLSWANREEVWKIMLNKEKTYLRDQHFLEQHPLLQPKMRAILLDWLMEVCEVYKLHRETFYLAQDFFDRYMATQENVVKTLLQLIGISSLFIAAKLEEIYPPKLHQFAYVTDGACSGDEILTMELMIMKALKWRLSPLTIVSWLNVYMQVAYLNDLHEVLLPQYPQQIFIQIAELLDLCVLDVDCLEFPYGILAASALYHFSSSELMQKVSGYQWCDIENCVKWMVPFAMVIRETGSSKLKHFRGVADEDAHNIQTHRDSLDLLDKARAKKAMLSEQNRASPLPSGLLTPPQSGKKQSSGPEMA
Sequence (Q96SW2 whole entry): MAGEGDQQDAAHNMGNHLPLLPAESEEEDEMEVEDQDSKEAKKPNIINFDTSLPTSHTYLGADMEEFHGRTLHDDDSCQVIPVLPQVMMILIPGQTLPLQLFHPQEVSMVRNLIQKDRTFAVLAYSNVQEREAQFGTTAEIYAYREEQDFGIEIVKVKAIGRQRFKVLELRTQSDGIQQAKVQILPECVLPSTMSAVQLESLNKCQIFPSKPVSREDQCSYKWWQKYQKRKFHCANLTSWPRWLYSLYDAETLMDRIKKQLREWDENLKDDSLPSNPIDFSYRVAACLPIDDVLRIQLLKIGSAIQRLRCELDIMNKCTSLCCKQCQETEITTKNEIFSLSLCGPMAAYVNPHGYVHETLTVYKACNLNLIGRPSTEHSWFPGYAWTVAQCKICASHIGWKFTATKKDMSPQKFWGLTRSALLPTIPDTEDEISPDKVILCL
Sequence (Q16531 whole entry partner): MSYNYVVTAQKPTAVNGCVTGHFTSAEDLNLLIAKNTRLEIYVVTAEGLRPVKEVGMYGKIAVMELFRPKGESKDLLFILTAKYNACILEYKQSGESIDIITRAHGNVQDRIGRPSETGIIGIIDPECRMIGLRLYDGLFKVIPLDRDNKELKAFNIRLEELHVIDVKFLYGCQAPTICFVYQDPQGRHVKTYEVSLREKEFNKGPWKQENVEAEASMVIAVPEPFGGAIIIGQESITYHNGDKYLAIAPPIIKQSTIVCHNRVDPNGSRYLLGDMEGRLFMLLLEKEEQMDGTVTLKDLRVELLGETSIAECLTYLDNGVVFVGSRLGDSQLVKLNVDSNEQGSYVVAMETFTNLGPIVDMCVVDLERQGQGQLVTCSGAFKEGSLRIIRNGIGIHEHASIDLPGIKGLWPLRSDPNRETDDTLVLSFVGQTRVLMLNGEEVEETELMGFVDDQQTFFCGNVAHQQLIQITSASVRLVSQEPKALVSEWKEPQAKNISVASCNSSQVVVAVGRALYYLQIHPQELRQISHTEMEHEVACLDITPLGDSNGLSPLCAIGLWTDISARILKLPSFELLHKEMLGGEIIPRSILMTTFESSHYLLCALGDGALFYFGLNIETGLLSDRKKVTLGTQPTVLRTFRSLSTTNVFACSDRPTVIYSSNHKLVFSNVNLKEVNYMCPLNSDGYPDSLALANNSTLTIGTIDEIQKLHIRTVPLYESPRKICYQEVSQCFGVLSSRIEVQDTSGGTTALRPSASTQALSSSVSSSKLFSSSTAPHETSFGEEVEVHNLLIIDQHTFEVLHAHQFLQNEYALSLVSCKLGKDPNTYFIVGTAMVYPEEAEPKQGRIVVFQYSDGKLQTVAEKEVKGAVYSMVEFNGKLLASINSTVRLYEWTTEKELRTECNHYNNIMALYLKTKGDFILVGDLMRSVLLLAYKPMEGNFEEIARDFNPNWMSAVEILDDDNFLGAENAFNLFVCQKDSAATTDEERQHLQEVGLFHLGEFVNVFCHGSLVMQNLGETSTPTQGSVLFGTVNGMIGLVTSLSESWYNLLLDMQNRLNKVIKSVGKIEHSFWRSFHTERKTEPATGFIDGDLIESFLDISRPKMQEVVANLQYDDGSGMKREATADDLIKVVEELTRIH
endpoint: DC50 (nM)

Study these solved cases before continuing.
compound="COc1c(COC(=O)Nc2ccc(Oc3ccc(F)c(Cl)c3)cc2C)ccc2c1C(=O)N(C1CCC(=O)NC1=O)C2 (stereo not drawn) [Example 83]" unitannotation=nM valuemeasured=136
compound="CC(C)COc1c(COC(=O)Nc2ccc(Oc3ccc(F)c(F)c3)cc2)ccc2c1C(=O)N(C1CCC(=O)NC1=O)C2 (stereo not drawn) [Example 138]" unitannotation=nM valuemeasured=173

(1) COc1c(COC(=O)Nc2ccc(Oc3cccc(F)c3F)cc2F)ccc2c1C(=O)N(C1CCC(=O)NC1=O)C2 (stereo not drawn) [Example 22]
(2) O=C1CCC(N2Cc3ccc(COC(=O)Nc4ccc(Oc5ccc(F)cc5)cc4F)c(O[C@@H]4CCCOC4)c3C2=O)C(=O)N1 (stereo partly drawn) [Example 147]
Q. When the recorded DC50 values are compared, which is smaller: that of 1 or that of 2 ? Refer to your chosen item by its label in the answer.
A. 2
(2: 12 nM, 1: 26 nM)

(A) CN(C)C(=O)COc1c(COC(=O)Nc2ccc(Oc3ccc(F)c(F)c3)cc2)ccc2c1C(=O)N(C1CCC(=O)NC1=O)C2 (stereo not drawn) [Example 175]
(B) COc1c(COC(=O)Nc2ccc(Oc3ccc(F)cc3)cc2C)ccc2c1C(=O)N(C1CCC(=O)NC1=O)C2 (stereo not drawn) [Example 51]
(C) COc1c(COC(=O)Nc2ccc(Oc3ccccc3C)cc2)ccc2c1C(=O)N(C1CCC(=O)NC1=O)C2 (stereo not drawn) [Example 101]
Q. Provide the items ranked by increasing DC50. Your answer should be the labels, listed in the requested order.
A. A, C, B
(A: 45 nM, C: 72 nM, B: 363 nM)

(A) COc1c(COC(=O)Nc2ccc(Oc3ccc(F)cc3C)cc2F)ccc2c1C(=O)N(C1CCC(=O)NC1=O)C2 (stereo not drawn) [Example 95]
(B) O=C1CCC(N2Cc3ccc(COC(=O)Nc4ccc(Oc5ccc(F)cc5Cl)cc4)c(O[C@@H]4CCOC4)c3C2=O)C(=O)N1 (stereo partly drawn) [Example 155]
Q. When the recorded DC50 values are compared, which is smaller: that of A or that of B ? Refer to your chosen item by its label in the answer.
A. B
(B: 176 nM, A: 274 nM)

(P) COc1c(COC(=O)Nc2ccc(Oc3ccc(F)cc3)cc2F)ccc2c1C(=O)N(C1CCC(=O)NC1=O)C2 (stereo not drawn) [Example 28]
(Q) O=C1CCC(N2Cc3ccc(COC(=O)Nc4ccc(Oc5ccc(F)c(F)c5)cc4)c(OC4CCCC4)c3C2=O)C(=O)N1 (stereo not drawn) [Example 151]
Q. Thinking about recorded DC50 values, which is higher, P or Q ? Refer to your chosen item by its label in the answer.
A. P
(P: 110 nM, Q: 71 nM)

----------
target: Cyclin E1 (Homo sapiens, UniProt P24864+Q96SW2); assay: Cyclin E1 Cellular Degradation Assay (MSD); assay type: cell-based; parameters: endogenous in cells; host or cells: OVCAR3; details: Cyclin E1 cellular degradation
endpoint: DC50 (nM)

compound="O=C1CCC(N2Cc3ccc(COC(=O)Nc4ccc(Oc5ccc(F)cc5Cl)cc4)c(OC4CCC4)c3C2=O)C(=O)N1 (centres unmarked) [Example 128]" valuemeasured=101
compound="O=C1CCC(N2Cc3ccc(COC(=O)Nc4ccc(Oc5ccc(F)c(F)c5)cc4)c(OC(F)F)c3C2=O)C(=O)N1 (centres unmarked) [Example 61]" valuemeasured=157
compound="O=C1CCC(N2Cc3ccc(COC(=O)Nc4ccc(Oc5ccccc5)cc4)c(Oc4ccccc4)c3C2=O)C(=O)N1 (centres unmarked) [Example 62]" valuemeasured=98
compound="COc1c(COC(=O)Nc2ccc(Oc3cc(F)c(F)c(F)c3)cc2C)ccc2c1C(=O)N(C1CCC(=O)NC1=O)C2 (centres unmarked) [Example 40]" valuemeasured=41
compound="COc1c(COC(=O)Nc2ccc(Oc3cc(F)ccc3Cl)cc2)ccc2c1C(=O)N(C1CCC(=O)NC1=O)C2 (centres unmarked) [Example 106]" valuemeasured=57

(1) COc1c(COC(=O)Nc2ccc(Oc3ccccc3)cc2)ccc2c1C(=O)N(C1CCC(=O)NC1=O)C2 (centres unmarked) [Example 2]
(2) COc1c(COC(=O)Nc2ccc(Oc3cc(F)c(F)cc3F)cc2F)ccc2c1C(=O)N(C1CCC(=O)NC1=O)C2 (centres unmarked) [Example 43]
Q. Thinking about recorded DC50 values, which is higher, 1 or 2 ? Refer to your chosen item by its label in the answer.
A. 2
(2: 165 nM, 1: 78 nM)

(a) CC(C)Oc1c(COC(=O)Nc2ccc(Oc3ccc(F)cc3)cc2)ccc2c1C(=O)N(C1CCC(=O)NC1=O)C2 (centres unmarked) [Example 59]
(b) COc1c(COC(=O)Nc2ccc(Cc3ccc(F)c(F)c3)cc2)ccc2c1C(=O)N(C1CCC(=O)NC1=O)C2 (centres unmarked) [Example 17]
(c) COc1c(COC(=O)Nc2ccc(Oc3ccc(F)c(Cl)c3)cc2)ccc2c1C(=O)N(C1CCC(=O)NC1=O)C2 (centres unmarked) [Example 14]
Q. Order the items by recorded DC50; the first position goes to the largest value. Your answer should be the labels, listed in the requested order.
A. b, a, c
(b: 447 nM, a: 131 nM, c: 59 nM)

----------
molecular target: GSPT1 (Homo sapiens, UniProt P15170+Q96SW2); assay: GSPT1 Cellular Degradation Assay (DF15-GSPT1-ePL); assay type: cell-based; parameters: expressed in transfected cells; conditions: DF15-GSPT1-ePL cells, 20 hours
Sequence (P15170 whole entry): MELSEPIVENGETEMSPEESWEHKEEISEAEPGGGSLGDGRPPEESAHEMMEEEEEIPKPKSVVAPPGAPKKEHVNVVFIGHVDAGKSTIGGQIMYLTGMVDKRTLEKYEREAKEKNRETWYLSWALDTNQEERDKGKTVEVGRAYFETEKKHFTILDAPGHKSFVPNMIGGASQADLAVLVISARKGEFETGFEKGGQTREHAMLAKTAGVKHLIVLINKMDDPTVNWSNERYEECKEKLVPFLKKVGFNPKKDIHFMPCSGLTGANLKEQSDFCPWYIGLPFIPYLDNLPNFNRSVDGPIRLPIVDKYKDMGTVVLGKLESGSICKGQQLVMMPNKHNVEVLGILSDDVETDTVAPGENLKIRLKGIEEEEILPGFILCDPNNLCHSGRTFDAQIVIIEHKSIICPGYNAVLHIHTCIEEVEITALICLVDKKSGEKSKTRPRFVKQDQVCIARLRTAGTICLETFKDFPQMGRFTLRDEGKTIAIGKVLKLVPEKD
Sequence (Q96SW2 whole entry): as the sequence (Q96SW2 whole entry) above
Sequence (Q16531 whole entry partner): as the sequence (Q16531 whole entry partner) above
endpoint: Dmax (%)

Study these solved cases before continuing.
molecule="COc1cc(Oc2ccc(F)cc2F)ccc1NC(=O)OCc1ccc2c(c1OC)C(=O)N(C1CCC(=O)NC1=O)C2 (centres unmarked) [Example 49]" unitannotation=% valuemeasured=24
molecule="COc1c(COC(=O)Nc2ccc(N(C)c3cccc(F)c3)cc2)ccc2c1C(=O)N(C1CCC(=O)NC1=O)C2 (centres unmarked) [Example 8]" unitannotation=% valuemeasured=15
molecule="O=C1CCC(N2Cc3ccc(COC(=O)Nc4ccc(Oc5ccc(F)c(F)c5)cc4)c(OCC(=O)N4CCOCC4)c3C2=O)C(=O)N1 (centres unmarked) [Example 178]" unitannotation=% valuemeasured=16
molecule="COc1c(COC(=O)Nc2ccc(Oc3cccc(F)c3)cc2)ccc2c1C(=O)N(C1CCC(=O)NC1=O)C2 (centres unmarked) [Example 4]" unitannotation=% valuemeasured=35
molecule="COc1cc(Oc2ccccc2)ccc1NC(=O)OCc1ccc2c(c1OC)C(=O)N(C1CCC(=O)NC1=O)C2 (centres unmarked) [Example 93]" unitannotation=% valuemeasured=5

(P) O=C1CCC(N2Cc3ccc(COC(=O)Nc4ccc(Oc5ccc(F)c(F)c5)cc4)c(Oc4cccnc4)c3C2=O)C(=O)N1 (centres unmarked) [Example 172]
(Q) COc1c(COC(=O)Nc2ccc(Oc3cc(F)c(F)c(F)c3)cc2C)ccc2c1C(=O)N(C1CCC(=O)NC1=O)C2 (centres unmarked) [Example 40]
Q. When the recorded Dmax values are compared, which is smaller: that of P or that of Q ? Refer to your chosen item by its label in the answer.
A. P
(P: 6%, Q: 9%)

(A) COc1cc(Oc2ccc(F)c(Cl)c2)ccc1NC(=O)OCc1ccc2c(c1OC)C(=O)N(C1CCC(=O)NC1=O)C2 (centres unmarked) [Example 100]
(B) CC(C)Oc1c(COC(=O)Nc2ccc(Oc3cccc(F)c3F)cc2)ccc2c1C(=O)N(C1CCC(=O)NC1=O)C2 (centres unmarked) [Example 120]
(C) O=C1CC[C@H](N2Cc3ccc(COC(=O)Nc4ccc(Oc5ccc(F)c(F)c5)cc4)c(OCCCc4ccccc4)c3C2=O)C(=O)N1 [Example 173]
Q. Order the items by recorded Dmax; the first position goes to the largest value. Your answer should be the labels, listed in the requested order.
A. A, C, B
(A: 33%, C: 14%, B: 6%)

----------
target: Cyclin E1 (Homo sapiens, UniProt P24864+Q96SW2); assay: Cyclin E1 Cellular Degradation Assay (MSD); type: cell-based; parameters: endogenous in cells; host or cells: OVCAR3; conditions: selectivity for degradation of Cyclin E1 over GSPT1
// reported Ratio of GSPT1 DC50/Cyclin E1 DC50 per item

Study these solved cases before continuing.
compound="O=C1CCC(N2Cc3ccc(COC(=O)Nc4ccc(Oc5ccc(F)cc5F)cc4)c(OC4CCOCC4)c3C2=O)C(=O)N1 (stereo not shown)" endpoint="Ratio of GSPT1 DC50/Cyclin E1 DC50" valuemeasured=>210
compound="O=C1CCC(N2Cc3ccc(COC(=O)Nc4ccc(Oc5ccc(F)cc5Cl)cc4)c(OC4CCC4)c3C2=O)C(=O)N1 (stereo not shown)" endpoint="Ratio of GSPT1 DC50/Cyclin E1 DC50" valuemeasured=>139

Continue with the compound presented below.
Sample COc1cc(Oc2ccc(F)cc2C)ccc1NC(=O)OCc1ccc2c(c1OC)C(=O)N(C1CCC(=O)NC1=O)C2 (stereo not shown) ; Ratio of GSPT1 DC50/Cyclin E1 DC50 observed: >43

Reference source: patent US20250084056A1
